Listed compounds paired with reported Potency
- experimental_details: Quantitative High-Throughput drug screen in 47 multiple myeloma cell lines against the NCATS MIPE library collection: SKMM1_PLB cell viability assay (AID 1919863); note: potency is the fitted concentration of half-maximal effect; nearly all actives have a fitted effect of over 35% in size
- conditions: SKMM1 myeloma viability, CellTiter-Glo ATP, 48 h
Results filed as inconclusive are left out. Activity calls are given as the source filed them. Calls come from the whole dose curve; as a rule, active = well fitted cell-killing curve with a large enough effect; inconclusive = small, poorly fitted or top-dose-only effect, or effect the other way; inactive = no such curve, though single readings can be large or run the other way.
readout_kind: Potency

# record_smiles, value_reported
measured = [
    ("CC1(C)CCC(C)(C)c2cc(NC(=O)c3ccc(C(=O)O)cc3)ccc21", "14.8 µM (active)"),
    ("CC(=O)NC[C@H]1CN(c2ccc(N3CCOCC3)c(F)c2)C(=O)O1", "3.72 µM (active)"),
    ("O=c1cc(N2CCOCC2)oc2c(-c3ccccc3)cccc12", "14.8 µM (active)"),
    ("Cc1cc(C2CCCCC2)n(O)c(=O)c1", "9.35 µM (active)"),
    ("O=C(CCc1ccc(O)cc1)c1c(O)cc(O)cc1O", "1.05 µM (active)"),
    ("O=C(O)c1cccc(-c2noc(-c3ccccc3F)n2)c1", "9.35 µM (active)"),
    ("CCCCc1ccc2nc(NC(=O)OC)[nH]c2c1", "0.0469 µM (active)"),
    ("CCN(CC)C(=S)SSC(=S)N(CC)CC", "0.0105 µM (active)"),
    ("NCCCCNCCCN", "20.9 µM (active)"),
]
